# target or system: MRP2 (ABCC2) (Homo sapiens);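 note: Inside-out membrane vesicles from Sf9 insect cells expressing human MRP2, measuring uptake of the estradiol glucuronide substrate, expressed as percent of untreated control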
# Sequence (Q92887 whole entry): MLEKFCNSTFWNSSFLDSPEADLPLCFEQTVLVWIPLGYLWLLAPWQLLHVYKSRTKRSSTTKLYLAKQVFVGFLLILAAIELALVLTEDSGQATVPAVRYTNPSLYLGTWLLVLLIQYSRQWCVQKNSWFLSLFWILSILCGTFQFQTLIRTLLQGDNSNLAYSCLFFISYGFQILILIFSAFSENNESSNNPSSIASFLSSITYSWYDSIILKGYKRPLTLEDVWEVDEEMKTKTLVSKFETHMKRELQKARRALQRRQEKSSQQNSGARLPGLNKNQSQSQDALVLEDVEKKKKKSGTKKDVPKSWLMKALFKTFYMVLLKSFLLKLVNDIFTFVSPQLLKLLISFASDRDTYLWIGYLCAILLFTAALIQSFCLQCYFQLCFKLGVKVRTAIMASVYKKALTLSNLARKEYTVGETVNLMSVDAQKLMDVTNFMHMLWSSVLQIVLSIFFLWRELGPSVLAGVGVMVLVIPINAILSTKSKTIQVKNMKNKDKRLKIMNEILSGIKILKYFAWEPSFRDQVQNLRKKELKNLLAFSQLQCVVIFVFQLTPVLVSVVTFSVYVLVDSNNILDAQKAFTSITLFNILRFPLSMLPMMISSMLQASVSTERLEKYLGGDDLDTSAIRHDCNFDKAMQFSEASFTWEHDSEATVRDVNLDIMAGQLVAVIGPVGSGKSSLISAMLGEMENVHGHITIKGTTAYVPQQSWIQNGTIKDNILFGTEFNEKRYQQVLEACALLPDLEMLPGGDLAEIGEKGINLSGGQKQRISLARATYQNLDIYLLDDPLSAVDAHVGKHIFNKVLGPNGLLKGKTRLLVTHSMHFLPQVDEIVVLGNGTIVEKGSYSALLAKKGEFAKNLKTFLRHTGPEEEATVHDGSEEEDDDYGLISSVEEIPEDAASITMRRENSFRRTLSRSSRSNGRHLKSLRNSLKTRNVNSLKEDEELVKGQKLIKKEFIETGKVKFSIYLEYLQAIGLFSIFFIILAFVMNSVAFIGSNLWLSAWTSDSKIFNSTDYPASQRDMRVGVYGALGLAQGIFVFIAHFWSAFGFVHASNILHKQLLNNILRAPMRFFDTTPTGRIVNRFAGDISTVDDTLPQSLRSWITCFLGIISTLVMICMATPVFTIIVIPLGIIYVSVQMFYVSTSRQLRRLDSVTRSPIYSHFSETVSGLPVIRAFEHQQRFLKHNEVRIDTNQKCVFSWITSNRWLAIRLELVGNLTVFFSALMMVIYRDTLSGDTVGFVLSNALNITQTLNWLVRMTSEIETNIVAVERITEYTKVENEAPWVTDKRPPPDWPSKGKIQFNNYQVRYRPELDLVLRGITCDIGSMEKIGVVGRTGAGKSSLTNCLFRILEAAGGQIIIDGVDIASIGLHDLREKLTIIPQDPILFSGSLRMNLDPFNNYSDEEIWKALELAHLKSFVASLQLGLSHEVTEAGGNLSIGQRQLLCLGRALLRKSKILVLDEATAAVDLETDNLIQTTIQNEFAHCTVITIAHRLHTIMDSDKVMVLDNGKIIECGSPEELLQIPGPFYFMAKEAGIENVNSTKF
# test details: in vitro
# experimental conditions: sf9
# Description: Effect on human MRP2-mediated estradiol-17-beta-glucuronide transport in Sf9 cells inverted membrane vesicles relative to control
Recorded activity, one value per entry.
Give the value in % but do not write % after it.

Some solved cases for reference:
COC(=O)[C@H]1[C@H]2C[C@@H]3c4[nH]c5cc(OC)ccc5c4CCN3C[C@H]2C[C@@H](OC(=O)c2cc(OC)c(OC)c(OC)c2)[C@@H]1OC
37
COc1cc2nc(N3CCN(C(=O)C4CCCO4)CC3)nc(N)c2cc1OC (stereo not drawn)
94

Okay, now this compound:
Query: Which activity reading was recorded for the compound CCCNCC(O)COc1ccccc1C(=O)CCc1ccccc1 (stereo not drawn) ?
Result: 58
